Values from patent US20120264685A1

Answer each item with its documented cAMP production (pmol/ml/µg prt) with saturated glucagon peptide, at 100 nM.
studySystem: human glucagon receptor (human, UniProt P47871 26-477)
Sequence (P47871 26-477): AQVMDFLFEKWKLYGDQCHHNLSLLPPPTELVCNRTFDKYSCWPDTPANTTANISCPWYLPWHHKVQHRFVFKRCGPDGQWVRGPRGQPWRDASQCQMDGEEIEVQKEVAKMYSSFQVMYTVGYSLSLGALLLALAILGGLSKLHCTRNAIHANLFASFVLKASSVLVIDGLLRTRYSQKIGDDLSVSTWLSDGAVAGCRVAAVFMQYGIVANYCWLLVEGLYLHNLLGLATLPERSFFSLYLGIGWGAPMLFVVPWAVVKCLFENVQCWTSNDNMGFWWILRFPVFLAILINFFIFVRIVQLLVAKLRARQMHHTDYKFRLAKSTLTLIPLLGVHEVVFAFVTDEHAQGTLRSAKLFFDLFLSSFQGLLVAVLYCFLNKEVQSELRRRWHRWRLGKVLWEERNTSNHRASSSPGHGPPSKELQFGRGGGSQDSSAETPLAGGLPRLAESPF
experimentalDetails: cell-based or functional assay
Where no end group is shown, it is not given here. [ ]: non-standard residue; d: D form. Bip(2'-Et-4'-OMe) = CCc1cc(OC)ccc1-c1ccc(C[C@H](N)C(=O)O)cc1; αMePhe(2-F) = C[C@](N)(Cc1ccccc1F)C(=O)O; αMeBip(OMe) = alpha-methylated Bip(OMe); hhPhe = N[C@@H](CCCc1ccccc1)C(=O)O; αMeP = C[C@@]1(C(=O)O)CCCN1; αMeAPPA = not defined here; αMeS = C[C@](N)(CO)C(=O)O; Aib = CC(C)(N)C(=O)O
I only need the number, in pmol/ml/µg prt, no unit after it.

# query: cAMP production (pmol/ml/µg prt) with saturated glucagon peptide, at 100 nM of entry VHSEGTFTSD[Bip(2'-Et-4'-OMe)][αMeAPPA] (not fully specified (C-terminus); printed as VHSEGTFTSD-Bip(OMe)-(αMe-APPA); reading uncertain) [Seq. ID. No. 87]
1

Same read-out for VH[Aib]EGTFT[αMeS]D[αMeBip(OMe)][hhPhe]-NH2 [Seq. ID. No. 39] ?
12

Please answer likewise for VVH[αMeP]QGT[αMePhe(2-F)]TSD[αMeBip(OMe)][hhPhe]-NH2 [Seq. ID. No. 216]
0
